target: CDK2/Cyclin A1 (Homo sapiens); assay: Kinase IC50, 33P labeled isotope method; type: biochemical
reported.metric: IC50 (nM)
Numeric only. Scale: nM

# compound, reported.result
rows = [
    ("CN1CCN(Cc2ccc(NC(=O)c3n[nH]cc3Nc3ncnc4[nH]ccc34)cc2)CC1", 8),
]

In: Entry CN1CCN(Cc2ccc(NC(=O)c3n[nH]cc3Nc3ncnc4sccc34)cc2)CC1 : reported IC50 = ?
Out: 9

====

Below, each of the molecules is paired with its reported IC50 value.
target: KDR/VEGFR2 (Homo sapiens); experiment: Kinase IC50, 33P labeled isotope method; type: biochemical; details: 20 μM ATP; read-out: IC50* KDR/VEGFR2
Sequence (P35968 834-1162 limits assumed): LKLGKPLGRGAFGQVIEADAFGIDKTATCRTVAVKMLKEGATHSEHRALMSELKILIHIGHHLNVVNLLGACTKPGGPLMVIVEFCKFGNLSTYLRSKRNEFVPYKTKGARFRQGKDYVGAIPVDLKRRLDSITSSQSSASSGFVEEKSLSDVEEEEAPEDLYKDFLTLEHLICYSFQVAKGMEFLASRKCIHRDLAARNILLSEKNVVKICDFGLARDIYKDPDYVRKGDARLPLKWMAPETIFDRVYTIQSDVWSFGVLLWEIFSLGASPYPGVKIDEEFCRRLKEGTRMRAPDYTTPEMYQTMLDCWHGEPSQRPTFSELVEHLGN
# output: bare number, implied unit nM

Here is how some molecules turned out for IC50.
# molecule, assay.system, IC50, nM
measured = [
    ("Cc1cc2c(Nc3c[nH]nc3C(=O)Nc3ccc(CN4CCN(C)CC4)cc3)nccc2s1 [Compound I-27]", "KDR/VEGFR2 (Homo sapiens)", 38),
    ("Cc1cc2c(Nc3c[nH]nc3C(=O)Nc3ccc(CN4CCN(C)CC4)cc3)ncnc2[nH]1 [Compound I-13]", "KDR/VEGFR2 (Homo sapiens)", 39),
    ("CN1CCN(Cc2ccc(NC(=O)c3n[nH]cc3Nc3ncnc4occc34)cc2)CC1 [Compound I-21]", "KDR/VEGFR2 (Homo sapiens)", 41),
]

# context switch: different molecule, same IC50
In: Using the record for Cc1cc2c(Nc3c[nH]nc3C(=O)Nc3ccc(CN4CCN(C)CC4)cc3)ncnc2s1 [Compound I-3] , report its IC50.
Out: 33

====

target: CDK2/A (Homo sapiens, UniProt P24941); construct: purchased; test: Inhibitory activity to CDK2 (FRET); format: biochemical; conditions: read-out: CDK2 inhibition % (1 × 10^−6 mol/L)
Entries and their measured inhibition at 1 µM follow.
Entry rule: numbers only, all in %.

Guide cases for inhibition at 1 µM, answers given:
# molecule, inhibition at 1 µM (%)
data = [
    ("O=C(Nc1c[nH]nc1-c1nc2ccc(CN3CCOCC3)cc2[nH]1)NC1CC1 [AT-9283, reference compound]", 39.7),
    ("O=C(Nc1ccc(CN2CCOCC2)cc1)c1n[nH]cc1Nc1nccc2ccsc12", 73.1),
    ("O=C(Nc1ccc(CN2CCOCC2)cc1)c1n[nH]cc1Nc1ncnc2ccsc12", 56.2),
    ("O=C(Nc1ccc(CN2CCOCC2)cc1)c1n[nH]cc1Nc1ccnc2occc12", 54.2),
    ("CN1CCN(Cc2ccc(NC(=O)c3n[nH]cc3Nc3nccc4sccc34)cc2)CC1", 59.5),
]

In: Entry Cc1cc2c(Nc3c[nH]nc3C(=O)Nc3ccc(CN4CCN(C)CC4)cc3)nccc2s1 : reported inhibition at 1 µM = ?
Out: 72.6

In: Another molecule to check: O=C(Nc1ccc(CN2CCOCC2)cc1)c1n[nH]cc1Nc1ncnc2occc12
Out: 66.3

In: Please do the same for O=C(Nc1ccc(CN2CCOCC2)cc1)c1n[nH]cc1Nc1ccnc2ccoc12 as well.
Out: 20.2

====

tested on: colon cancer cell line HCT116; assay: Anti-tumor activity in vitro, MTT method; assay type: cell-based; details: Homo sapiens, HCT-116, 48 h, read-out: HCT-116 (IC50/μM)
reported.metric: IC50 (µM)
Write the answer as a number in µM, unit excluded.

# molecule, reported.metric, reported.result
rows = [
    ("CN1CCN(Cc2ccc(NC(=O)c3n[nH]cc3Nc3ncnc4occc34)cc2)CC1", "IC50", 9.58),
]

In: IC50 for CN1CCN(Cc2ccc(NC(=O)c3n[nH]cc3Nc3ncnc4sccc34)cc2)CC1 ?
Out: 0.13

In: Consider next the molecule CN1CCN(Cc2ccc(NC(=O)c3n[nH]cc3Nc3nccc4ccsc34)cc2)CC1 in the same way.
Out: 0.26

In: And then O=C(NC1CCNCC1)c1n[nH]cc1NC(=O)c1c(Cl)cccc1Cl [AT-7519, reference compound] , what is it?
Out: 21.2
